Experiment: in vivo
Conditions: male, cynomolgus, cynomolgus monkey, iv, 10 ug/kg
Where a SMILES comes first, the peptide text is derived from it. [ ]: non-standard residue; d: D form. pGlu = O=C1CC[C@@H](C(=O)O)N1
measured.attribute: Tmax (min)
Give just the number in min; leave the unit off.

Inquiry: Query: Tmax; subject: CC(C)C[C@H](NC(=O)[C@H](Cc1c[nH]c2ccccc12)NC(=O)CNC(=O)[C@H](Cc1ccc(O)cc1)NC(=O)[C@H](C)NC(=O)[C@H](CCC(=O)O)NC(=O)[C@H](CCC(=O)O)NC(=O)[C@H](CCC(=O)O)NC(=O)[C@H](CCC(=O)O)NC(=O)[C@H](CCC(=O)O)NC(=O)[C@H](CC(C)C)NC(=O)[C@H](Cc1c[nH]c2ccccc12)NC(=O)[C@@H]1CCCN1C(=O)CNC(=O)[C@@H]1CCC(=O)N1)C(=O)N[C@@H](CC(=O)O)C(=O)N[C@@H](Cc1ccccc1)C(N)=O [Compound B] ([pGlu]GPWLEEEEEAYGWLDF-NH2)
Reply text: 1

###

Test: in vivo
Conditions: male, cynomolgus, cynomolgus monkey, iv, 10 ug/kg
Where a SMILES comes first, the peptide text is derived from it. [ ]: non-standard residue; d: D form. pGlu = O=C1CC[C@@H](C(=O)O)N1
measured.attribute: Cmax (ng/mL)
Give just the number in ng/mL; leave the unit off.

Inquiry: Query: Cmax; subject: CC(C)C[C@H](NC(=O)[C@H](Cc1c[nH]c2ccccc12)NC(=O)CNC(=O)[C@H](Cc1ccc(O)cc1)NC(=O)[C@H](C)NC(=O)[C@H](CCC(=O)O)NC(=O)[C@H](CCC(=O)O)NC(=O)[C@H](CCC(=O)O)NC(=O)[C@H](CCC(=O)O)NC(=O)[C@H](CCC(=O)O)NC(=O)[C@H](CC(C)C)NC(=O)[C@H](Cc1c[nH]c2ccccc12)NC(=O)[C@@H]1CCCN1C(=O)CNC(=O)[C@@H]1CCC(=O)N1)C(=O)N[C@@H](CC(=O)O)C(=O)N[C@@H](Cc1ccccc1)C(N)=O [Compound B] ([pGlu]GPWLEEEEEAYGWLDF-NH2)
Reply text: 127

###

Assay: in vivo
Settings: male, cynomolgus monkey, iv, 3 ug/kg
Where a SMILES comes first, the peptide text is derived from it. [ ]: non-standard residue; d: D form. pGlu = O=C1CC[C@@H](C(=O)O)N1
measured.attribute: AUC

Inquiry: Query: AUC; subject: CC(C)C[C@H](NC(=O)[C@H](Cc1c[nH]c2ccccc12)NC(=O)CNC(=O)[C@H](Cc1ccc(O)cc1)NC(=O)[C@H](C)NC(=O)[C@H](CCC(=O)O)NC(=O)[C@H](CCC(=O)O)NC(=O)[C@H](CCC(=O)O)NC(=O)[C@H](CCC(=O)O)NC(=O)[C@H](CCC(=O)O)NC(=O)[C@H](CC(C)C)NC(=O)[C@H](Cc1c[nH]c2ccccc12)NC(=O)[C@@H]1CCCN1C(=O)CNC(=O)[C@@H]1CCC(=O)N1)C(=O)N[C@@H](CC(=O)O)C(=O)N[C@@H](Cc1ccccc1)C(N)=O [Compound B] ([pGlu]GPWLEEEEEAYGWLDF-NH2)
Reply text: 4.18 ng·h/mL

###

Test: in vivo
Settings: male, cynomolgus monkey, iv, 30 ug/kg, plasma t1/2
Where a SMILES comes first, the peptide text is derived from it. [ ]: non-standard residue; d: D form. pGlu = O=C1CC[C@@H](C(=O)O)N1
measured.attribute: half-life

Inquiry: Query: half-life; subject: CC(C)C[C@H](NC(=O)[C@H](Cc1c[nH]c2ccccc12)NC(=O)CNC(=O)[C@H](Cc1ccc(O)cc1)NC(=O)[C@H](C)NC(=O)[C@H](CCC(=O)O)NC(=O)[C@H](CCC(=O)O)NC(=O)[C@H](CCC(=O)O)NC(=O)[C@H](CCC(=O)O)NC(=O)[C@H](CCC(=O)O)NC(=O)[C@H](CC(C)C)NC(=O)[C@H](Cc1c[nH]c2ccccc12)NC(=O)[C@@H]1CCCN1C(=O)CNC(=O)[C@@H]1CCC(=O)N1)C(=O)N[C@@H](CC(=O)O)C(=O)N[C@@H](Cc1ccccc1)C(N)=O [Compound B] ([pGlu]GPWLEEEEEAYGWLDF-NH2)
Reply text: 4 to 5 min
